- System: MDA-MB-435
- TEST DETAILS: NCI tumour cell line growth inhibition, 48 h
Calls of active or inactive are those of the source. No stated cut-off is given here; in the data, active = GI50 up to about 1.1 µM and inactive = higher.
So I've got a bunch of compounds here, and I need their GI50 values.

If you can, please state the reported GI50 value of NC(=O)NN=C1Cc2ccccc2C1 .
> 100 µM (inactive)

Lookup COc1cc(Nc2c(C#N)[n+]([O-])c3ccccc3[n+]2[O-])cc(OC)c1OC
37.4 µM (inactive)

Lookup c1ccc(/C(=N\Nc2nc3ccccc3s2)c2ccccn2)cc1
5.68 µM (inactive)

Lookup Cc1ccc2[nH]c3[nH]c(=O)[nH]c(=O)c3c2c1
> 100 µM (inactive)

Lookup O=C(CC(=O)N(C(=O)/C=C\c1ccccc1)c1ccc(Cl)cc1)N1N=C(c2ccccc2)C(/N=N/c2cccc([N+](=O)[O-])c2)C1=O (configuration not stated)
9.82 µM (inactive)

Lookup COc1ccc(/C=C2\CCC(CNc3ccc(Br)cc3)C2=O)cc1 (configuration not stated)
> 100 µM (inactive)

Lookup SCc1ccc(CS)s1
> 100 µM (inactive)

Lookup Cc1cnc2sn(-c3ccc(Br)cc3)c(=O)c2c1
40 µM (inactive)

Lookup COC(=O)c1cc2ccc(O)c(O)c2cn1
1.73 µM (inactive)

Lookup C=CCOCn1ccc(N)nc1=O
> 100 µM (inactive)

Lookup Cc1ccc(-c2cc(C(F)(F)F)nn2-c2ccc(S(N)(=O)=O)cc2)cc1
17.5 µM (inactive)

Lookup Nc1nc(SCC(=O)c2ccccc2)nc2nc3c(c(-c4ccccc4)c12)CCCC3
32.6 µM (inactive)

====

- Test system: LXFL 529
- TEST DETAILS: NCI tumour cell line growth inhibition, 48 h
Active and inactive are the calls of the source. No stated cut-off is given here; in the data, active = GI50 up to about 1.1 µM and inactive = higher.
Select the matching outcome among yes = active, no = inactive

Given O=C1C=C(Nc2ccc(Br)cc2)c2ccccc2C1=O , state the outcome it received in this test.
no

Lookup CN(C)CCC(=O)N1CCc2c([nH]c3ccccc23)C1c1cccnc1 (configuration not stated)
no

Lookup O=C(/C=C\c1ccc(Cl)c(Cl)c1)c1ccc(Cl)cc1Cl
no

Lookup COc1cc(OC)cc(-c2cc(O)c3cc4c(cc3n2)OCO4)c1
yes

Lookup O=C(C(=O)c1ccc(Cc2ccc(C(=O)C(=O)c3ccccc3)cc2)cc1)c1ccccc1
no

Lookup CCP(C)(C)=O
no

Lookup Cn1c2c(c3ccccc31)CCN(CCCCN1CCc3c(n(C)c4ccccc34)C1=O)C2
no

Lookup O=c1[c-](-c2ccccc2)[se]c(-c2ccccc2)[n+]1-c1ccccc1
no

Lookup C=C1CC2OC2(C(=O)O[C@H]2CCC3[C@@H]4CCC5=CC(=O)CC[C@]5(C)C4CC[C@@]32C)C1=O (some centres not stated)
no

Lookup C[C@H](NC(=O)n1c2ccccc2c2ccccc21)C(=O)O
no

Lookup C[N+](C)(C)CC1CCCC(C[N+](C)(C)C)C1=O (configuration not stated)
yes

Lookup Nc1nc(CCC(=O)Nc2cccc(C(F)(F)F)c2)cc(-c2cccc3ccccc23)n1
no

Lookup NC1=NS(=O)(=O)Nc2[nH]c(-c3ccccc3)nc21
no

Lookup CCCCN(CCCC)CC(C(C)=O)C(c1ccccc1)c1c(O)c2ccccc2oc1=O (configuration not stated)
no

Lookup CC[P+](C)(C)CC
no

Lookup CC(=O)O[C@H]1CC[C@@]2(C)C(CC[C@]3(C)C2CC[C@]2(C)Oc4c(C)cc(O)cc4C[C@@H]23)C1(C)C (some centres not stated)
no

Lookup O=C(O)[C@@H](NS(=O)(=O)c1ccc([N+](=O)[O-])cc1)c1ccccc1
no

====

- Test system: SK-OV-3
- TEST DETAILS: NCI tumour cell line growth inhibition, 48 h
Calls of active or inactive are those of the source. Cut-off read from the data, not from the text of the source: active = GI50 up to about 1.1 µM and inactive = higher.
ATTRIBUTE MEASURED: GI50

If you can, please state the reported GI50 value of NC(=O)C(=CN1C(=O)CC(=O)NC1=S)C(N)=O .
> 100 µM (inactive)

Lookup O=Cc1ccc(Oc2c3ccccc3nc3ccccc23)cc1
4.63 µM (inactive)

Lookup CSc1c(C(=O)Nc2ccc(C)cc2)c(N)n(N)c(=O)c1C#N
> 100 µM (inactive)

Lookup CC(C)(C)c1cc(CCC(=O)Nc2ccc(Cl)cc2)nc(NC#N)n1
> 100 µM (inactive)

Lookup N#Cc1ccc(/N=C(/NCC(=O)O)Nc2cccc3ccccc23)cc1
> 10 µM (inactive)

Lookup COC(=O)/C=c1/c2ccccc2n2nc3ccccc3c12
16 µM (inactive)

====

- System: OVCAR-8
- TEST DETAILS: NCI tumour cell line growth inhibition, 48 h
The source made the active and inactive calls. Cut-off read from the data, not from the text of the source: active = GI50 up to about 1.1 µM and inactive = higher.
So I've got a bunch of molecules here, and I need their GI50 values.

If you can, please state the reported GI50 value of O=C(CC(CC(=O)Oc1c(Br)cc(Br)cc1C(=O)O)C(=O)Oc1c(Br)cc(Br)cc1C(=O)O)Oc1c(Br)cc(Br)cc1C(=O)O .
19.3 µM (inactive)

Lookup COc1cc(/C=C(\C#N)C(=O)c2ccccc2)ccc1OCc1ccccc1
> 100 µM (inactive)

Lookup COC(=O)Cc1c([C@H]2[C@H](CC(=O)OC)c3ccccc3N2C(C)=O)[nH]c2ccccc12
> 100 µM (inactive)

Lookup COc1ccc(-n2cnc3c(N)nc(N)nc32)cc1
> 100 µM (inactive)

Lookup O=C1OC(OCC#CCOC2OC(=O)C(Cl)=C2Cl)C(Cl)=C1Cl (stereo not given)
4.31 µM (inactive)

Lookup COC(=O)/C=c1/c2ccccc2n2nc3ccccc3c12
> 100 µM (inactive)

Lookup C[S+](C)C1(c2ccccc2)C(=O)c2ccccc2C1=O
> 54.7 µM (inactive)

Lookup O=C(Cc1ccccc1)NN1C(=O)/C(=C\c2ccccc2)S/C1=N\c1ccccc1
> 100 µM (inactive)

Lookup NC(=O)C(=CN1C(=O)CC(=O)NC1=S)C(N)=O
> 100 µM (inactive)

Lookup CN1CCc2c(sc3ncn(C)c(=N)c23)C1
> 100 µM (inactive)

====

So I've got a bunch of compounds here, and I need their GI50 values.
- System: HOP-62
- TEST DETAILS: NCI tumour cell line growth inhibition, 48 h
Calls of active or inactive are those of the source. No stated cut-off is given here; in the data, active = GI50 up to about 1.1 µM and inactive = higher.

If you can, please state the reported GI50 value of NNc1ncc2c(n1)-c1ccccc1OC2 .
35.6 µM (inactive)

Lookup Cc1ccc(/N=N/c2c(O)ccc3cc(S(=O)(=O)O)cc(S(=O)(=O)O)c23)cc1
> 100 µM (inactive)

Lookup O=C1C(Cl)=C(NCCO)C(=O)c2c(O)ccc(O)c21
3.28 µM (inactive)

Lookup Cc1ccc(S(=O)(=O)SCc2ccccc2CSS(=O)(=O)c2ccc(C)cc2)cc1
> 100 µM (inactive)

Lookup O=C1C(Br)=C[C@H]2C3C=CC(Br)(C3=O)[C@@H]12 (stereo partly specified)
35.6 µM (inactive)

Lookup N#Cc1ccc(/N=C(/NCC(=O)O)Nc2cccc3ccccc23)cc1
> 10 µM (inactive)

Lookup CC(=O)Oc1cc2c(cc1OC(C)=O)OCC(c1ccccc1)C2 (stereo unspecified)
19.1 µM (inactive)

Lookup CSc1nc(NC2OC(CO)C(O)C(O)C2O)c(N)c(=O)[nH]1 (stereo unspecified)
> 100 µM (inactive)

Lookup CN(C)c1ccc(-c2nc(N)nc3c2CCCC3)cc1
99.1 µM (inactive)

Lookup COc1cccc(NC(=O)C(=O)C(C(C)=O)c2nc3ccc(Cl)cc3nc2O)c1 (stereo unspecified)
> 100 µM (inactive)

Lookup Cc1ccc2[nH]c3[nH]c(=O)[nH]c(=O)c3c2c1
> 100 µM (inactive)

====

- Tested on: SW-620
- TEST DETAILS: NCI tumour cell line growth inhibition, 48 h
Calls of active or inactive are those of the source. Cut-off read from the data, not from the text of the source: active = GI50 up to about 1.1 µM and inactive = higher.
Select the matching outcome among active, inactive

Given COc1ccc(Nc2nc3cc(C(F)(F)F)ccc3nc2C(=O)O)cc1 , state the outcome it received in this test.
inactive

Lookup O=C([O-])C(O)C(O)C(=O)O.[K+] (stereo not drawn) [POTASSIUM HYDROGENTARTRATE]
inactive

Lookup CC(C(=O)N1C(=O)N(C(=O)C(C)C(O)c2ccccc2)C(c2ccccc2)C1c1ccccc1)C(O)c1ccccc1 (stereo not drawn)
inactive

Lookup CC(C)(C)N1Cc2ccccc2/C(=C/Sc2ccccc2)C1=O
inactive

Lookup Cc1sc2nc3n(c(=O)c2c1C)N=C(c1ccc([N+](=O)[O-])cc1)CS3
inactive

Lookup N#C[C@H](c1nc2ccccc2[nH]1)c1nc2ccccc2nc1Cl
inactive

Lookup COc1ccc2c(c1)C=C(C(C)(C)C)NS2(=O)=O
inactive

Lookup CSc1s[s+]c(SC)c1[O-]
inactive

Lookup CCOc1cn(C2CC(O)C(CO)O2)c(=O)[nH]c1=O (stereo not drawn)
inactive

Lookup O=C1CCCC(=O)N1n1c(Cc2ccc(Cl)cc2)n[nH]c1=O
inactive

Lookup CC(SCc1ccccc1)C(=O)O (stereo not drawn)
inactive

Lookup CN1CCc2c(sc3ncn(C)c(=N)c23)C1
inactive

Lookup O=C(c1ccc(Cl)c(Cl)c1)N(C(=O)N1CCN(c2ccccc2)CC1)S(=O)(=O)c1ccccc1
inactive

Lookup C=CCOCn1ccc(N)nc1=O
inactive

Lookup C/C=C\C(CC(=O)NCCC1CN(C(=O)OCc2ccccc2)c2ccccc21)CC(=O)OC (stereo not drawn)
inactive

Lookup COc1cc(C2C(Cl)C(=O)N2NC(=O)c2ccc(N)cc2)cc(Br)c1O (stereo not drawn)
inactive

Lookup C/C(=N\Nc1nc2ccccc2o1)c1cc(C)ncn1
active

Lookup C=C1CC2OC2(C(=O)O[C@H]2CCC3[C@@H]4CCC5=CC(=O)CC[C@]5(C)C4CC[C@@]32C)C1=O (stereo partly drawn)
inactive

Lookup C[S+](C)C1(c2ccccc2)C(=O)c2ccccc2C1=O
inactive

Lookup CN(CCCCN1CCCC1)CCCN(C)C(=O)Cc1ccc(Cl)c(Cl)c1
inactive

Lookup O=C(Nc1ccccc1F)c1c(O)nc2sccn2c1=O
inactive

Lookup CS/C(=N/C#N)NCCc1c[nH]c2ccccc12
inactive

Lookup C=CCN(c1cc(OCc2ccccc2)c2[nH]cc(C)c2c1)S(C)(=O)=O
inactive

Lookup COc1ccc2nc3cc(Cl)ccc3c(NCCCNCCCNc3c4ccc(Cl)cc4nc4ccc(OC)cc34)c2c1
active

Lookup Cc1ccc(/N=N/c2c(C)c(C#N)c(=S)n(C3OC(CO)C(O)C(O)C3O)c2C)cc1 (stereo not drawn)
inactive

Lookup CC(=O)c1cccc(N2COC(C)(C)c3nc4ccccc4n3C2)c1
inactive

Lookup COC(=O)c1ccc(CCC2=CC(=O)C(Br)=CC2=O)cc1
inactive

Lookup CCOC(=O)c1nc2ccccc2nc1Oc1cc(OC)cc(OC)c1
inactive

Lookup COc1c(-c2nc3ccc(N4CCN(C)CC4)cc3[nH]2)cc(OC)c2[nH]c(CO)nc12
inactive

Lookup CC(C)(C)c1cc(CCC(=O)Nc2ccc(Cl)cc2)nc(NC#N)n1
inactive

Lookup COc1cccc(NC(=O)C(=O)C(C(C)=O)c2nc3ccc(Cl)cc3nc2O)c1 (stereo not drawn)
inactive

Lookup O=C(Cc1ccccc1)NN1C(=O)C(Cl)C1c1ccccc1Cl (stereo not drawn)
inactive

Lookup C[C@@H]1C[C@H]2OC(=O)[C@@]3(C)CCC[C@@](C)([C@@H]23)[C@@]1(O)CCc1ccoc1
inactive

Lookup Cc1ccc(-c2cc(C(F)(F)F)nn2-c2ccc(S(N)(=O)=O)cc2)cc1 [CELECOXIB]
inactive

Lookup COc1cc(C2c3cc4c(cc3CC3COC(=O)N32)OCO4)cc(OC)c1OC (stereo not drawn)
inactive

Lookup CSC12c3cc(C)n(-c4ccc([N+](=O)[O-])cc4)c3CC(C)(C)CN1C(=O)C2Oc1ccccc1 (stereo not drawn)
inactive

Lookup NC1=NN(c2ccccc2)C(=O)C1/C(=N\NC(=O)c1cc2ccccc2cc1O)C(=O)Nc1ccc(Cl)c(Cl)c1 (stereo not drawn)
inactive

Lookup CCCCNc1c(CN)cnc2cc(Cl)ccc12
inactive

Lookup CC(=O)NC1(C)C(C)C2CC1C(C)C2(C)C (stereo not drawn)
inactive

Lookup Cc1cc2c(c(=O)o1)C1=S(SC(c3ccccc3)=C1)S2 (stereo not drawn)
inactive

Lookup O=C(O)CSc1n[nH]c(=O)[nH]c1=O
inactive

Lookup C[C@H](NC(=O)n1c2ccccc2c2ccccc21)C(=O)O
inactive

Lookup CC(=O)Nc1ccccc1SCCSSCCSc1ccccc1NC(C)=O
inactive
